Tox50 listing for selected compounds.
System: HepG2 cells
TEST_METHOD_NOTES: HepG2 cytotoxicity counter-screen
ASSAY_SETUP: cytotoxic activity against HepG2 cells
Quick note: give the figure in µM, leave out the unit.

* CCCC(N)C(=O)NC1CCN(c2c(F)c(N)c3c(=O)c(C(=O)O)cn4c3c2Oc2ccccc2-4)C1.Cl (stereo not shown) | 2.99
* C=CCC1OC(=O)c2cc(OC)cc(OC)c21 (stereo not shown) | 2.57
* COc1cc(-c2nc(C(C)(C)CN)[nH]c2-c2ccncc2)ccc1Br.Cl | 43.66

// moving on: another record for Tox50
Lookup: What does the record list as Tox50 for "CCCOc1ccc2ccccc2c1CNCCCCCCNCc1c(OCCC)ccc2ccccc12.CS(=O)(=O)O" ?
Found: 3.43

###

Tested on: P. falciparum female gametocytes
TEST_METHOD_NOTES: P. falciparum Dual Gamete Formation Assay (PfDGFA), female readout (Pfs25-positive female gametes)
Assay type: cell-based, Plasmodium falciparum NF54
ASSAY_SETUP: 2µM, 24h preincubation with gametocytes prior to induction of gametogenesis; replicate R3
Recorded % inhibition female (individual replicates) R3 for the following compounds
Give the value, in units of %, as a plain number.

• Cn1cc(CN2CCC(OC(c3ccccc3)c3ccc(Cl)cc3)CC2)cn1 (centres unmarked) = 20.7
• CCCCCCCN1CC[C@@H](CCCc2ccnc3ccc(OC)cc23)[C@@H](CCN)C1.O=C(O)C(=O)O = -1.7
• CCc1c(CCNCCCCCCNCCc2ccc3c(c2C)OCO3)ccc2c1OCO2.Cl = 50.1

Lookup: Could you tell me which % inhibition female (individual replicates) R3 is on file for "Cc1cccc2nc(-c3ccc(-c4cccc(CN5CCC(CCN6CCCCC6)CC5)c4)s3)[nH]c12.O=C(O)C(F)(F)F" ?
Found: 27.4

Lookup: Can you check "CN1CCC(NCc2ccc(-c3cccc(S(=O)(=O)NCc4ccccc4)c3)cc2)CC1.O=C(O)C(F)(F)F" next?
Found: -4.9

###

Parameter % inhibition female (individual replicates) R3: see the listing below.
Tested on: P. falciparum female gametocytes
TEST_METHOD_NOTES: P. falciparum Dual Gamete Formation Assay (PfDGFA), female readout (Pfs25-positive female gametes)
Assay type: cell-based, Plasmodium falciparum NF54
ASSAY_SETUP: 2µM, 24h preincubation with gametocytes prior to induction of gametogenesis; replicate R3
Answer with a number only, understood to be in %.

- C[C@H](Cc1ccc(OCCNC[C@H](O)c2cccc(Cl)c2)cc1)NC[C@H](O)c1ccc(Cl)c(Cl)c1.O: 33.9
- C[C@H](Cc1ccc(S(=O)(=O)c2ccc(C[C@@H](C)NC[C@H](O)c3cccc(Cl)c3)cc2)cc1)NC[C@H](O)c1cccc(Cl)c1.Cl: 9.1
- Cl.c1ccc2c(NCCCCCCCCCNc3ccnc4ccccc34)ccnc2c1: 19.4
- N#Cc1ccc(Cn2ccc3c4c(N)nc(N)nc4ccc32)cc1: 77.4

Could you now consider this next compound?
Lookup: May I ask what % inhibition female (individual replicates) R3 has been recorded for CCOc1ccccc1CCNC(C)Cc1ccc(C(=O)Nc2ccc(CC(C)NCCc3cccc(Cl)c3)cc2)cc1 (stereo not drawn) ?
Found: 9.3

###

System: P. falciparum male gametocytes
TEST_METHOD_NOTES: P. falciparum Dual Gamete Formation Assay (PfDGFA), male readout (exflagellation)
Assay type: cell-based, Plasmodium falciparum NF54
ASSAY_SETUP: HepG2 Tox50 versus male IC50
Description: […] The Pf DGFA was performed as described in Delves et al. 2016 [17]. […] Exflagellation was recorded by capturing 10 frames over 1 s under brightfield illumination using a x4 objective with a 1.5x zoom (effectively x6) attached to an automated Nikon Ti fluorescence microscope. […] The plates were then returned to the microscope and female gametes imaged at x6 using fluorescence microscopy. […]
Tick 1 if Selectivity Ratio M is 8 or greater. Tick 0 if Selectivity Ratio M is less than 8.

Use the examples below as a reference point.
• CN1CCN(c2ccc(Nc3ncc(Cl)c(Nc4cccnc4C(N)=O)n3)cc2)CC1.Cl = 1
• CC(C)(C)c1ccc(CNC(=O)c2ccc(CNC3CCC(N)CC3)s2)cc1 (centres unmarked) = 0

Lookup: State whether the measured Selectivity Ratio M reaches 8, counting equality as reaching it, for "CCN(CC)CCOc1ccc(Nc2ncc3cc(-c4c(Cl)cccc4Cl)c(=O)n(C)c3n2)cc1"
Found: 0

Lookup: Now the molecule "Cl.NC(=O)c1ccccc1Nc1nc(Nc2cccc(N3CCN(CCO)CC3)c2)ncc1Cl"
Found: 1

Lookup: And "COc1cc2c(cc1S(=O)(=O)c1ccc(COc3ccc(C(F)(F)F)cc3)cc1)CNCC2.Cl" ?
Found: 1

Lookup: Same question for "CNC(=S)NN=C(C)c1ccccn1" please.
Found: 0

Lookup: And for "CN(CCCCN)Cc1ccc(-c2ccc(Cl)cc2)cc1" ?
Found: 0

Lookup: Item: "CS(=O)(=O)O.FC(F)(F)COc1ccc(CCNCCCCNCCc2ccc(OCC(F)(F)F)c3ccccc23)c2ccccc12"
Found: 0

###

Test system: P. falciparum female gametocytes
TEST_METHOD_NOTES: P. falciparum Dual Gamete Formation Assay (PfDGFA), female readout (Pfs25-positive female gametes)
Type: cell-based, Plasmodium falciparum NF54
ASSAY_SETUP: PfDGFA at 2µM, 24h preincubation with gametocytes prior to induction of gametogenesis; replicate R1
Listed here are compounds together with their documented % inhibition female (individual replicates) R1.
Field: value (include unit after the number)

Solved entries (count: 4):
• COc1ccccc1CNc1ccnc(N2CC(Oc3ccc(F)cc3)C2)n1 = 24.5%
• Cl.NC1=NC(CCc2ccccc2)N(c2ccc(Cl)cc2)C(N)=N1 (centres unmarked) = 1.0%
• CCCCN(Cc1cc(Cl)c(OC)c(OC)c1)c1ccc(C(O)(C(F)(F)F)C(F)(F)F)cc1.O=C(O)C(F)(F)F = 1.9%
• COc1cc(C(=O)NC2CCc3ccccc32)cc(Cl)c1OC (centres unmarked) = 1.9%

Lookup: Quick check: % inhibition female (individual replicates) R1 on P. falciparum female gametocytes, item "N#CCSc1nnc(-c2ccccc2)c2ccccc12" ?
Found: 9.7%

###

This listing pairs compounds with measured Tox50.
Tested on: HepG2 cells
TEST_METHOD_NOTES: HepG2 cytotoxicity counter-screen
ASSAY_SETUP: cytotoxic activity against HepG2 cells
Numbers only here, please. The scale is µM.

- CCCCOc1c(CCNCCCCNCCc2cc(OC)c3ccccc3c2OCCCC)cc(OC)c2ccccc12.CS(=O)(=O)O: 3.16
- CS(=O)(=O)O.CSc1ccc2ccccc2c1CCNCCCCNCCc1c(SC)ccc2ccccc12: 3.73
- CCN(CC)CC(O)CNc1c2ccc([N+](=O)[O-])cc2nc2cc(OC)c(OC)cc12.Cl (stereo not shown): 2.63

Field: next compound
Lookup: Recorded Tox50 for "CC(C)(C)c1ccc(-c2nc3c(ccc4nc(N)nc(N)c43)[nH]2)cc1.Cl" , please?
Found: 3.25

###

Below, each entry is listed with its recorded % inhibition female (individual replicates) R4.
Tested on: P. falciparum female gametocytes
TEST_METHOD_NOTES: P. falciparum Dual Gamete Formation Assay (PfDGFA), female readout (Pfs25-positive female gametes)
Type: cell-based, Plasmodium falciparum NF54
ASSAY_SETUP: PfDGFA at 2µM, 24h preincubation with gametocytes prior to induction of gametogenesis; replicate R4
Write it as a number; the unit % goes unstated.

Lookup: Looking for the measured % inhibition female (individual replicates) R4 of CC(O)C1CCCCN1C(=O)c1ccc(-c2ccc(-c3nc4ccccc4[nH]3)s2)cc1 (stereo not shown) , can you help?
Found: 14.9

###

System: P. falciparum female gametocytes
TEST_METHOD_NOTES: P. falciparum Dual Gamete Formation Assay (PfDGFA), female readout (Pfs25-positive female gametes)
Format: cell-based, Plasmodium falciparum NF54
ASSAY_SETUP: Plasmodium falciparum; 2µM, 24h preincubation with gametocytes; replicate R4; read-out: % inhibition female (individual replicates) R4
Class Condition met: inhibition at 2 µM at least 40%. Class Condition not met: inhibition at 2 µM below 40%.

Past entries and their recorded results:
* CN1CCN(c2ccc(Nc3ncc(Cl)c(Nc4cccnc4C(N)=O)n3)cc2)CC1.Cl [TCMDC-134164] | Condition not met
* CS(=O)(=O)Cc1ccc(Nc2ncc(Cl)c(Nc3cccnc3C(N)=O)n2)cc1.Cl [TCMDC-134165] | Condition not met
* Br.c1cc(C2=NC3CCCCC3N2)ccc1OCCCOc1ccc(C2=NC3CCCCC3N2)cc1 (stereo not shown) [TCMDC-137803] | Condition met

Lookup: Quick check: does COc1ccc(Nc2ncc(OC)c(Nc3ccccc3C(N)=O)n2)cc1N1CCN(C)CC1.O=CO [TCMDC-134149] have inhibition at 2 µM greater than or equal to 40%?
Found: Condition not met

Lookup: Input Cc1ccc(C(C(=O)Nc2ccc(N3CCNCC3)c(Cl)c2)c2ccccc2)cc1 (stereo not shown) [TCMDC-134292]
Found: Condition met

Lookup: Could you do the same for Cl.NCC1(c2nc(-c3ccc(Cl)c(O)c3)c(-c3ccncc3)[nH]2)CCCCC1 [TCMDC-141154] , please?
Found: Condition met

Lookup: Also, Cc1cc(Nc2ccncc2)n2nc(C)c(-c3ccc(Cl)cc3)c2n1 [TCMDC-124478] please.
Found: Condition not met

Lookup: Similarly, Br.c1cc(Nc2nc(-c3ccc(-c4csc(Nc5ccncc5)n4)cc3)cs2)ccn1 [TCMDC-139725] ?
Found: Condition met

Lookup: Repeat with CNC(=O)c1ccccc1Nc1nc(Nc2ccc(N3CCN(C)CC3)nc2)ncc1C.Cl [TCMDC-134123]
Found: Condition not met
